# assayed-system: T1, Smad2-Y426A (UniProt Q62432 1-467, Y426A)
# T1 construct: Smad2, full length, point mutant Y426A; source: E. coli BL21 RIL codon plus, purified (Ni-NTA)
# T1 sequence (Q62432 whole entry Y426A): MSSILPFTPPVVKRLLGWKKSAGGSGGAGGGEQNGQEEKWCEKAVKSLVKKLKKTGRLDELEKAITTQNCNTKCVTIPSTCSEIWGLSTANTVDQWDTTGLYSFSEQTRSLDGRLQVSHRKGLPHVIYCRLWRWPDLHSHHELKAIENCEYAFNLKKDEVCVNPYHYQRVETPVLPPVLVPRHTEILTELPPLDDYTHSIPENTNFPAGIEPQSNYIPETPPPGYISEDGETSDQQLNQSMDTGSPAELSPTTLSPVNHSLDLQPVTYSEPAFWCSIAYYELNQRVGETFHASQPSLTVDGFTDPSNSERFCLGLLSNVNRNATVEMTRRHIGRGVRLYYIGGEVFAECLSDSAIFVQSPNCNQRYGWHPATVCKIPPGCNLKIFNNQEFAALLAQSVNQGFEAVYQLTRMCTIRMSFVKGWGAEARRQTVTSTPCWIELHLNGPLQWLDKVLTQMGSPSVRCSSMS
# method-summary: fluorescence polarisation; fluorescence anisotropy; F-Ahx-labelled peptide fixed (2.5 μM in the methods, 2.5 nM in the legend), Smad2 WT or mutant varied (0-250 μM in the methods, 0-150 μM in the legend); 20 mM Tris pH 7.9, 160 mM NaCl; 10 min incubation
# experimental-context: both partners purified
Square brackets hold non-standard residues; d marks the D form. Ends that are not written are not given here. fluorescein = fluorescein-6-aminohexanoyl (F-Ahx); pS = N[C@@H](COP(=O)(O)O)C(=O)O; Ahx = NCCCCCC(=O)O
Measured pKd accompanies every entry in the list below.
pKd is defined as minus the log10 of a concentration measured in mol/L.

binder	pKd
{fluorescein-Ahx}-YDMTT[pS]G[pS]G[pS]GLPLL (type I TGF-β receptor (TβRI), GS region, triply phosphorylated; also called GS peptide; TβRI peptide; source: synthetic peptide; bought: AlanScientific) [TβRI GS region peptide (F-Ahx-YDMTTpSGpSGpSGLPLL)]	4.70

Problem: Name the recorded pKd of the item {fluorescein-Ahx}-ADNKDNGT (type I TGF-β receptor (TβRI), L45 loop; also called L45 peptide; L45 loop peptide; source: synthetic peptide; bought: AlanScientific) [TβRI L45 loop region peptide (F-Ahx-ADNKDNGT)] in your answer.
Result: 4.15
